Tested on: ACHN renal
protocol_text: NCI tumour cell line growth inhibition, 48 h; in the data active means GI50 below about 0.43 µM; inactive means the rest
# valid calls are true for active, false for inactive; nothing else

Some entries whose results are on file:
> print(dat)
                                   compound  qualitative.label
1  COc1cc(C2c3cc4c(cc3[C@@H](Nc3ccc(F)cc3)C3COC(=O)[C@H]23)OCO4)cc(OC)c1O (stereo not given in full)               true
2  COc1ccc(/C=C\c2cc(OC)c(OC)c(OC)c2)cc1NC(=O)/C=C/c1cc(OC)c(OC)c(OC)c1              false
3            COc1cccc(/C=C\C(=O)c2ccccc2)c1              false
4  COc1cc(C(=O)/C=C/c2c[nH]c3ccccc23)cc(OC)c1OC               true
5                 CSc1ccc(-c2cn3ccsc3n2)cc1              false
6  N#Cc1ccc2c(-c3ccnc(NC4CC4)n3)c(-c3ccc(F)cc3)nn2c1              false

// next entry
Look up the recorded call for Cc1cnc(C(=O)Nc2nc3ccc(S(=O)(=O)Nc4ccc(C(C)(C)C)cc4)cc3[nH]2)cn1 in this test. false
